assay.target: SAK (Homo sapiens, UniProt O00444)
Construct: made in house; host or cells: Sf9 insect cells, baculovirus
Sequence (O00444 whole entry): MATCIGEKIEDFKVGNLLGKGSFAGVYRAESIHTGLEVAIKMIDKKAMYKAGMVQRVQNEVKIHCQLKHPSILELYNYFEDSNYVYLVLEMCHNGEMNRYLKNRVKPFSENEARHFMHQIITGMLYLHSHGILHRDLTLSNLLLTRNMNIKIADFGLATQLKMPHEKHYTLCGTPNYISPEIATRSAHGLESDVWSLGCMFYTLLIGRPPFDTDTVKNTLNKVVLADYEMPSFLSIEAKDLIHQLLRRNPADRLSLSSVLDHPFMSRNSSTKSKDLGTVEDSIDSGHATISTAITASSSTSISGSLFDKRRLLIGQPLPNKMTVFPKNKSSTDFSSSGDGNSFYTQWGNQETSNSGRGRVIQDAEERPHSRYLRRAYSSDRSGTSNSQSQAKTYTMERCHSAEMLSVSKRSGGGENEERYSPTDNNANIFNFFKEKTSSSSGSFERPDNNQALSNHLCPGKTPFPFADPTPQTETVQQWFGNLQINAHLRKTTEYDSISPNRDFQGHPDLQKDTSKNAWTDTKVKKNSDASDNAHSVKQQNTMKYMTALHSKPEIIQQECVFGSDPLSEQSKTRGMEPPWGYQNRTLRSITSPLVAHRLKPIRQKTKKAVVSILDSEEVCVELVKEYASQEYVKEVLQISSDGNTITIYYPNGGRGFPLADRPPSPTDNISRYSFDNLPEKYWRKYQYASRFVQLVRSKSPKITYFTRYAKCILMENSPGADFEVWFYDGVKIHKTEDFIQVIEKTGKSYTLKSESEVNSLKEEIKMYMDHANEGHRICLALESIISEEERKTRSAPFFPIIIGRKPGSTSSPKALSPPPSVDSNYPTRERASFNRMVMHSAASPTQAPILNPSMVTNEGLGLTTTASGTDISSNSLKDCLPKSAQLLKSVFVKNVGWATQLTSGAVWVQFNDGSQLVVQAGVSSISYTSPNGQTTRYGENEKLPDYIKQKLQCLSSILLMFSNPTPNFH
measurement.notes: Radiometric protein kinase assay (33PanQinase Activity Assay)
Assay type: biochemical
run.parameters: 1 μM ATP; read-out: IC50 values [μM] SAK
// IC50 lookup, one value per entry
Write the value in µM as a bare number.

Quote IC50 reported for `CC(C)n1c2c(=O)ccc(=O)c2c2c(=O)c3ccccc3c21` please.
1.7

Quote IC50 reported for `O=c1ccc(=O)c2c1c1c(=O)c3ccccc3c1n2Cc1ccccc1` please.
3.9

###

// IC50 lookup, one value per entry
assay.target: FLT3 (Homo sapiens, UniProt P36888)
Construct: made in house; host or cells: Sf9 insect cells, baculovirus
Sequence (P36888 27-993): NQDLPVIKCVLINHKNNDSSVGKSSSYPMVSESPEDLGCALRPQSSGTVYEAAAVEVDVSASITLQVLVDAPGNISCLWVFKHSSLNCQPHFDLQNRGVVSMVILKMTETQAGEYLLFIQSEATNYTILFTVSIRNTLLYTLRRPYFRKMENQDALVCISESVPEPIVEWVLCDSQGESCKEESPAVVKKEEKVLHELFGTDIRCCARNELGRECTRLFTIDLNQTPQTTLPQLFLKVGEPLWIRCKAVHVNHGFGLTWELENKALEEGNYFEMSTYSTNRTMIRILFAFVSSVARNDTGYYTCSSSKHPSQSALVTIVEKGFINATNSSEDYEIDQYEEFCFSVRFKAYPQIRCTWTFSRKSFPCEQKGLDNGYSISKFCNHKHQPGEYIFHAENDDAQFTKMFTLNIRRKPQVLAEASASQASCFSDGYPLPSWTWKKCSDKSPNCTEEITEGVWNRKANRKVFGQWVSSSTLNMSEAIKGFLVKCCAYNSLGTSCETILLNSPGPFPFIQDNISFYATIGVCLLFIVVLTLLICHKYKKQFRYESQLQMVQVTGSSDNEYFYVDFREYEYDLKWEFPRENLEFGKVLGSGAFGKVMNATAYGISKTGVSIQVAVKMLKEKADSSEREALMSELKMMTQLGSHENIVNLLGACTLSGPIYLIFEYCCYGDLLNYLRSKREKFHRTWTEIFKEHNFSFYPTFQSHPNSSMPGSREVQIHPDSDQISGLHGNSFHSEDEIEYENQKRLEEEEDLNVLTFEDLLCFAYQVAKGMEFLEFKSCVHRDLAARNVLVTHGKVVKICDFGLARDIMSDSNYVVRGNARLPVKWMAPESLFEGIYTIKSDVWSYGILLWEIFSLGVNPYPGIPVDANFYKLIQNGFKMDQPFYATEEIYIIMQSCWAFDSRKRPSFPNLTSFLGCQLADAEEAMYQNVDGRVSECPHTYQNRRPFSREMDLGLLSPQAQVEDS
measurement.notes: Radiometric protein kinase assay (33PanQinase Activity Assay)
Assay type: biochemical
run.parameters: 1 μM ATP; read-out: IC50 values [μM] FLT3
Write the value in µM as a bare number.

CC(C)n1c2c(=O)ccc(=O)c2c2c(=O)c3ccccc3c21 [Compound 6b]	0.051

Now let's try a different one.
Quote IC50 reported for O=c1ccc(=O)c2c1c1c(=O)c3ccccc3c1n2Cc1ccccc1 [Compound 6c] please.
9.2

###

assay.target: MET (Homo sapiens, UniProt P08581)
Construct: made in house; host or cells: Sf9 insect cells, baculovirus
Sequence (P08581 25-1390): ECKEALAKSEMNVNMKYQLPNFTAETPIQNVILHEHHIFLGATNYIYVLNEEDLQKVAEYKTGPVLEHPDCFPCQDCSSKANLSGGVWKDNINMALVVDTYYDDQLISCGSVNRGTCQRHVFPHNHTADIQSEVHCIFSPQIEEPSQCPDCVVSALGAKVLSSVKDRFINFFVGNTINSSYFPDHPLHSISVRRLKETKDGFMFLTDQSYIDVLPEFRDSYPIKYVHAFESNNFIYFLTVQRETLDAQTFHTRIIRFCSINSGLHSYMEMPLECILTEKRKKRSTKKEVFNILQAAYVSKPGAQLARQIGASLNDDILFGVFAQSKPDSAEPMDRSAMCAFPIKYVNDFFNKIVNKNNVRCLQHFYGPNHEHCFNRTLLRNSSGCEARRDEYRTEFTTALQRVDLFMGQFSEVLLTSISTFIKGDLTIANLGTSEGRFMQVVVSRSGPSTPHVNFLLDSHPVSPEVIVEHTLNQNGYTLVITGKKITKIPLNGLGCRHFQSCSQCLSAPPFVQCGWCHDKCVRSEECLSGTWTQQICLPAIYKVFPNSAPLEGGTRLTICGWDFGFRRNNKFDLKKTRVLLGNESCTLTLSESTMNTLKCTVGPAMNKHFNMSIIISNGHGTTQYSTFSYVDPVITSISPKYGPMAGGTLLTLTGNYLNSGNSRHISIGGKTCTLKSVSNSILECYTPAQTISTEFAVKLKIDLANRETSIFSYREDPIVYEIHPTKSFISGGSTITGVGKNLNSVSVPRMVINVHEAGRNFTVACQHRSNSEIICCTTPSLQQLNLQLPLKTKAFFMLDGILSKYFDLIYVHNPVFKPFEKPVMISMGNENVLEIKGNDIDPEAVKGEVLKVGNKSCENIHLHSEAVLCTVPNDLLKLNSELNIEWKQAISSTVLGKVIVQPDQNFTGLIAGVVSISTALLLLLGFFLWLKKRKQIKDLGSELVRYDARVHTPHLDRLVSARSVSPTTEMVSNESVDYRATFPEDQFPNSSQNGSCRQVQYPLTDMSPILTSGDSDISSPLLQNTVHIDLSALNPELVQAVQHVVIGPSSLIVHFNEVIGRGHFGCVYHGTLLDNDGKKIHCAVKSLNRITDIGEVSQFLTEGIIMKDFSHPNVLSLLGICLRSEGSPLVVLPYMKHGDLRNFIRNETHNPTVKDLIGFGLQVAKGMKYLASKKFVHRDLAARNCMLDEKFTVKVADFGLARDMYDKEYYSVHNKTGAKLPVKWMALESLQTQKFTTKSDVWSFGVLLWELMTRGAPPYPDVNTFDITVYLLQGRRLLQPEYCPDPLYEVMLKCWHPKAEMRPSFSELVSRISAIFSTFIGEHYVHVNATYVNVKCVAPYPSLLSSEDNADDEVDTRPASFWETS
measurement.notes: Radiometric protein kinase assay (33PanQinase Activity Assay)
Assay type: biochemical
pIC50: −log10 of the molar value.
result.type: pIC50

Quote pIC50 reported for `CC(C)n1c2c(c3c1-c1ccccc1C3=O)C(=O)CCC2` please.
< 5.00

###

assay.target: EPHB4 (Homo sapiens)
Construct: made in house; host or cells: Sf9 insect cells, baculovirus
measurement.notes: Radiometric protein kinase assay (33PanQinase Activity Assay)
Type: biochemical
result.type: IC50

Look up and report IC50, with EPHB4 (Homo sapiens) as system, for `CC(C)n1c2c(c3c1-c1ccccc1C3=O)C(=O)CCC2`
> 10 µM

###

assay.target: CDK2/CycA (Homo sapiens, UniProt P24941)
Construct: made in house; host or cells: Sf9 insect cells, baculovirus
measurement.notes: Radiometric protein kinase assay (33PanQinase Activity Assay)
Type: biochemical
result.type: IC50

Quote IC50 reported for CC(C)n1c2c(c3c1-c1ccccc1C3=O)C(=O)CCC2 [Compound 4b] please.
> 10 µM

###

assay.target: EGF-R (Homo sapiens)
Construct: made in house; host or cells: Sf9 insect cells, baculovirus
Sequence (P00533 25-1210): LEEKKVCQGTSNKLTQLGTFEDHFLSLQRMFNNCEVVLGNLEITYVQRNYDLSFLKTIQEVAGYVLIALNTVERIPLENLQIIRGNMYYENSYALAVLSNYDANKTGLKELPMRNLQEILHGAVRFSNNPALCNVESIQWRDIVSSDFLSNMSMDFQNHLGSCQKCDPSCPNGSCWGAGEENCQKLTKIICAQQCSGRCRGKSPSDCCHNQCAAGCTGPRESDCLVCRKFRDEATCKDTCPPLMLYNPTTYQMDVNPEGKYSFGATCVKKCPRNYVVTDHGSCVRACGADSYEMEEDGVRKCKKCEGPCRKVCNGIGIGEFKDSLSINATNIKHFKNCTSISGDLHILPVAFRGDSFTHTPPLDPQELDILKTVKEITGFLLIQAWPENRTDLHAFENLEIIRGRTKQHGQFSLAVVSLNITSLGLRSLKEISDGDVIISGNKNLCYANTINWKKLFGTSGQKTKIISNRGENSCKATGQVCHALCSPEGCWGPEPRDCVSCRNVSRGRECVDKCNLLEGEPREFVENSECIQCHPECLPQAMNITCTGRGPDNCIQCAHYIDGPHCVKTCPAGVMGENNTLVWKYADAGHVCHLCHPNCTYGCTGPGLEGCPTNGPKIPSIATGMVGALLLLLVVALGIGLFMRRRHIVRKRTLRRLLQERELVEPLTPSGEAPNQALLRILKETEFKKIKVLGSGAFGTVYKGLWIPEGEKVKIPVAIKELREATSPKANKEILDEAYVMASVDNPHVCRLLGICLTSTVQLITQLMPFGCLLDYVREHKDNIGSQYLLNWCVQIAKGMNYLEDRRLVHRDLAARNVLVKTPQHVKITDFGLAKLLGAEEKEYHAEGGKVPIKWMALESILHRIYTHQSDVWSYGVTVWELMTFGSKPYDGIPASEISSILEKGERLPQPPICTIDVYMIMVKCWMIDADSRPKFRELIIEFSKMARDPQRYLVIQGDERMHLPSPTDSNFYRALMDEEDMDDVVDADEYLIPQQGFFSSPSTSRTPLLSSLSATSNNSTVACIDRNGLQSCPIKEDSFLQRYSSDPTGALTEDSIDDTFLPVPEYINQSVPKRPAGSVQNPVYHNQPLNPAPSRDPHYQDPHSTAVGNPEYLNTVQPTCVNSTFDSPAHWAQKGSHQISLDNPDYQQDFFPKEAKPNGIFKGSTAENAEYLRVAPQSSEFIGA
measurement.notes: Radiometric protein kinase assay (33PanQinase Activity Assay)
Format: biochemical
run.parameters: 1 μM ATP
result.type: IC50

O=c1ccc(=O)c2c1c1c(=O)c3ccccc3c1n2Cc1ccccc1 [Compound 6c]	2.5 µM

Now let's try a different one.
Quote IC50 reported for CC(C)n1c2c(=O)ccc(=O)c2c2c(=O)c3ccccc3c21 [Compound 6b] please.
> 10 µM

###

assay.target: human CK2 protein kinase (holoenzyme) (Homo sapiens, UniProt P68400)
Construct: made in house; host or cells: E. coli BL21(DE3), pT7-7 or bicistronic pET11d-CK2α, β
Sequence (P68400 whole entry): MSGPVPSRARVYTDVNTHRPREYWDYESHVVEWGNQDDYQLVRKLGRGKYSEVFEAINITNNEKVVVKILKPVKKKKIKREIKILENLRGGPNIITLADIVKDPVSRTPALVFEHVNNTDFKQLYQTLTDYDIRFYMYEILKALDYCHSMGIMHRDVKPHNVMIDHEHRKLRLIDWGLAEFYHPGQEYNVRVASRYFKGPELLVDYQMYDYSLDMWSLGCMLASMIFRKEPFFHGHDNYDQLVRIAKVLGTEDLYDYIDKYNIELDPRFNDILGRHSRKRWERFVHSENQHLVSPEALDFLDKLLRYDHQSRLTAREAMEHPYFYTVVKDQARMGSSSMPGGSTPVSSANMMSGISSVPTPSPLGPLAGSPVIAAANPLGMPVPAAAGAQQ
Sequence (P67870 whole entry partner): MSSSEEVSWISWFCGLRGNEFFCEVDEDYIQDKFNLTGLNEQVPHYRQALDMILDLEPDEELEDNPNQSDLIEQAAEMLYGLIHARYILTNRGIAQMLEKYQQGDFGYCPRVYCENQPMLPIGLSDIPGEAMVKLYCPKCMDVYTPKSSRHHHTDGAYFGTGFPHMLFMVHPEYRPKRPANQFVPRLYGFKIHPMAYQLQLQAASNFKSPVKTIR
measurement.notes: Inhibition of recombinant human CK2 protein kinase (holoenzyme), radiometric filter assay with peptide […]
Format: biochemical
run.parameters: 10 μM compound, DMSO control = 100% CK2 activity, at least three independent experiments
// inhibition at 10 µM lookup, one value per entry
Write the value in % as a bare number.

Illustrative cases are given below, each with its answer.
CC(c1ccccc1)n1c2c(c3c1-c1ccccc1C3=O)C(=O)CCC2 (racemic) [Compound 4f]	66
O=c1ccc(=O)c2c1c1c(=O)c3ccccc3c1n2CCc1ccccc1 [Compound 6d]	70
O=c1ccc(=O)c2c1c1c(=O)c3ccccc3c1n2Cc1ccccc1 [Compound 6c]	60

Quote inhibition at 10 µM reported for O=C1CCCc2c1c1c(n2-c2ccccc2)-c2ccccc2C1=O [Compound 4g] please.
60

Quote inhibition at 10 µM reported for O=C1CCCc2c1c1c(n2CCc2ccccc2)-c2ccccc2C1=O [Compound 4d] please.
67

###

assay.target: human CK2 protein kinase (holoenzyme) (Homo sapiens)
measurement.notes: Inhibition of recombinant human CK2 protein kinase (holoenzyme), radiometric filter assay with peptide […]
run.parameters: concentration range 30 μM to 0.01 μM, 100 μM ATP in assay buffer
result.type: pIC50
Remember, pIC50 is on a log scale: it is -log10 of the molar concentration.

Illustrative cases are given below, each with its answer.
O=c1ccc(=O)c2c1c1c(=O)c3ccccc3c1n2Cc1ccccc1	5.83
O=C1CCCc2c1c1c(n2-c2ccccc2)-c2ccccc2C1=O	5.84
O=c1ccc(=O)c2c1c1c(=O)c3ccccc3c1n2CCc1ccccc1	5.24

Now let's try a different one.
Quote pIC50 reported for `O=C1CCCc2c1c1c(n2CCc2ccccc2)-c2ccccc2C1=O` please.
6.09

###

assay.target: VEGF-R2 (Homo sapiens)
Construct: made in house; host or cells: Sf9 insect cells, baculovirus
measurement.notes: Radiometric protein kinase assay (33PanQinase Activity Assay)
Assay type: biochemical
run.parameters: 1 μM ATP; read-out: IC50 values [μM] VEGF-R2
Protocol: AKTI1, ARK5, Aurora-A, Aurora-B, B-RAF-VE, CDK2/CycA, CDK4/CycD1, CK2-alpha1 (catalytic subunit of CK2), EGF-R, EPHB4, ERBB2, FAK, IGF1-R, SRC, VEGF-R2, VEGF-R3, FLT3, INS-R, MET, PDGFR-beta, PLK1, SAK, TIE2, COT. […] The reaction mixture was incubated at 30° C. for 80 minutes. […] The incorporation of ^33Pi was determined using a microtiter plates scintillation counter (Microbeta Trilux, Wallac).
result.type: IC50 (µM)
Write the value in µM as a bare number.

CC(C)n1c2c(=O)ccc(=O)c2c2c(=O)c3ccccc3c21	1.9

Quote IC50 reported for `O=c1ccc(=O)c2c1c1c(=O)c3ccccc3c1n2Cc1ccccc1` please.
3.3

###

assay.target: INS-R (Homo sapiens)
Construct: made in house; host or cells: Sf9 insect cells, baculovirus
Sequence (P06213 980-1382 limits assumed): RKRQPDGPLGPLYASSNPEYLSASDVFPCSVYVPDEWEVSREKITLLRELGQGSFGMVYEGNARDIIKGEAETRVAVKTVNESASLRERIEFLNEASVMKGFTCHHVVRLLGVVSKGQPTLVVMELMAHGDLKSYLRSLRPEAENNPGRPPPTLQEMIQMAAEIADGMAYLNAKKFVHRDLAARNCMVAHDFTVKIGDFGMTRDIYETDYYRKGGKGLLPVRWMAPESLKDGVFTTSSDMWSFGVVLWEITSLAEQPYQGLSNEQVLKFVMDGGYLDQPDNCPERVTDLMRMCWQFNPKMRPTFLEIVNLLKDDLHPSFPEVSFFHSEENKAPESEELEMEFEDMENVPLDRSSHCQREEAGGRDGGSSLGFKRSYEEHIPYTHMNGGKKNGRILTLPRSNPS
measurement.notes: Radiometric protein kinase assay (33PanQinase Activity Assay)
Assay type: biochemical
run.parameters: 1 μM ATP; read-out: IC50 values [μM] INS-R
// IC50 lookup, one value per entry
Write the value in µM as a bare number.

O=c1ccc(=O)c2c1c1c(=O)c3ccccc3c1n2Cc1ccccc1	6.5

Now let's try a different one.
Quote IC50 reported for `CC(C)n1c2c(=O)ccc(=O)c2c2c(=O)c3ccccc3c21` please.
1.6

###

assay.target: VEGF-R3 (Homo sapiens)
Construct: made in house; host or cells: Sf9 insect cells, baculovirus
measurement.notes: Radiometric protein kinase assay (33PanQinase Activity Assay)
Assay type: biochemical
result.type: IC50

Quote IC50 reported for `CC(C)n1c2c(c3c1-c1ccccc1C3=O)C(=O)CCC2` please.
> 10 µM

###

assay.target: CK2-alpha1 (catalytic subunit of CK2) (Homo sapiens, UniProt P68400)
Construct: made in house; host or cells: Sf9 insect cells, baculovirus
measurement.notes: Radiometric protein kinase assay (33PanQinase Activity Assay)
Type: biochemical
run.parameters: 1 μM ATP, substrate casein
result.type: IC50

Quote IC50 reported for `O=c1ccc(=O)c2c1c1c(=O)c3ccccc3c1n2Cc1ccccc1` please.
> 10 µM
